Biological target: Serine/threonine-protein kinase B-raf (Homo sapiens, UniProt P15056)
Sequence (P15056 whole entry): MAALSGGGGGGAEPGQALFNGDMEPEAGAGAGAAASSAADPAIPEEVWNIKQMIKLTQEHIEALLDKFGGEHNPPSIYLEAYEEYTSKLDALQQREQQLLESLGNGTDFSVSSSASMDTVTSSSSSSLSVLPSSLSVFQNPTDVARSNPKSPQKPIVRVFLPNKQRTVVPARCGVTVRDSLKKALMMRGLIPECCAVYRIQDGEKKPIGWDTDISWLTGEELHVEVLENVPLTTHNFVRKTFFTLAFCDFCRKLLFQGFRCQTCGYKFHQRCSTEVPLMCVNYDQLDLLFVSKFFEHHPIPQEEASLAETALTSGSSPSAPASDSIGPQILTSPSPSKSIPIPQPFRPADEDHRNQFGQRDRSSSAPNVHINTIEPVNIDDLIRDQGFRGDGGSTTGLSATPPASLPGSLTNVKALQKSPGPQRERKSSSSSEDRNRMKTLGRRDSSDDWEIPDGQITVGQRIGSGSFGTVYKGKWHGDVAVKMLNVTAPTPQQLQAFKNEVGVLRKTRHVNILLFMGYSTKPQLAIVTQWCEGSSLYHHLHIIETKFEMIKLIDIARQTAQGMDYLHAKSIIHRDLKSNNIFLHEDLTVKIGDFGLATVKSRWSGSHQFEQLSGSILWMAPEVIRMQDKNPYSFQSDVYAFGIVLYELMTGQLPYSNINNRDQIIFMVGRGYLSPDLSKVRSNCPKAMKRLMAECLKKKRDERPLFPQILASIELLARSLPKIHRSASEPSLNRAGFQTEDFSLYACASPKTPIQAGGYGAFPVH
Assay: Binding affinity to BRAF (unknown origin) by intrinsic tryptophan fluorescence assay
Conditions: read-out: Kd
metric: Kd (µM)
Numbers only; they are read as µM.

Exercise: Kd for `CC[C@H](C)[C@H](NC(=O)[C@H](CC(N)=O)NC(=O)[C@@H](NC(=O)[C@H](Cc1cnc[nH]1)NC(=O)[C@H](CCCNC(=N)N)NC(=O)[C@@H](NC(=O)[C@H](CCCCN)NC(=O)[C@H](CCC(=O)O)NC(=O)[C@H](CC(C)C)NC(=O)[C@@H](NC(=O)CN)C(C)C)[C@@H](C)O)C(C)C)C(=O)N[C@@H](CC(C)C)C(=O)N[C@@H](CC(C)C)C(=O)N[C@@H](Cc1ccccc1)C(=O)N[C@@H](CCSC)C(=O)NCC(=O)N[C@@H](Cc1ccc(O)cc1)C(=O)N[C@@H](CO)C(=O)N[C@H](C(=O)O)[C@@H](C)O` ?
Key: 1.09

----------
Target: Serine/threonine-protein kinase B-raf (Homo sapiens, UniProt P15056)
Experiment: Binding affinity to BRAF (unknown origin) by intrinsic tryptophan fluorescence assay
Conditions: read-out: Kd
metric: Kd (µM)
Numbers only; they are read as µM.

Exercise: Reported Kd for Serine/threonine-protein kinase B-raf (Homo sapiens, UniProt P15056), given `CC[C@H](C)[C@H](NC(=O)[C@H](CC(N)=O)NC(=O)[C@@H](NC(=O)[C@H](Cc1cnc[nH]1)NC(=O)[C@H](CCCNC(=N)N)NC(=O)[C@H](CC(=O)O)NC(=O)[C@H](CCCCN)NC(=O)[C@H](CCCNC(=N)N)NC(=O)[C@H](CC(C)C)NC(=O)[C@@H](NC(=O)CN)C(C)C)C(C)C)C(=O)N[C@@H](CC(C)C)C(=O)N[C@@H](CC(C)C)C(=O)N[C@@H](Cc1ccccc1)C(=O)N[C@@H](CCSC)C(=O)NCC(=O)N[C@@H](Cc1ccc(O)cc1)C(=O)N[C@@H](CO)C(=O)N[C@H](C(=O)O)[C@@H](C)O` ?
Key: 2.2

----------
Biological target: Serine/threonine-protein kinase B-raf (Homo sapiens, UniProt P15056)
Test: Binding affinity to BRAF (unknown origin) by intrinsic tryptophan fluorescence assay
Details: read-out: Kd
metric: pKd
// scale note: pKd = -log10(conc_M); give the bare number

Solved entries:
CSCC[C@@H]1NC(=O)[C@H](Cc2ccccc2)NC(=O)[C@H](CC(C)C)NC(=O)[C@H](CC(C)C)NC(=O)[C@H](CCC(=O)O)NC(=O)[C@H](CC(N)=O)NC(=O)[C@H](C(C)C)NC(=O)[C@H](Cc2cnc[nH]2)NC(=O)[C@H](CCCNC(=N)N)NC(=O)[C@H](CCCCN)NC(=O)[C@H](CCCCN)NC(=O)[C@H](CCCNC(=N)N)NC(=O)[C@H](CC(C)C)NC(=O)CNC1=O | 5.72
CC[C@H](C)[C@H](NC(=O)[C@H](CC(N)=O)NC(=O)[C@H](C)NC(=O)[C@H](Cc1cnc[nH]1)NC(=O)[C@H](CCCNC(=N)N)NC(=O)[C@@H](NC(=O)[C@H](CCCCN)NC(=O)[C@H](CCCNC(=N)N)NC(=O)[C@H](CC(C)C)NC(=O)[C@@H](NC(=O)CN)C(C)C)[C@@H](C)O)C(=O)N[C@@H](CC(C)C)C(=O)N[C@@H](CC(C)C)C(=O)N[C@@H](Cc1ccccc1)C(=O)N[C@@H](CCSC)C(=O)NCC(=O)N[C@@H](Cc1ccc(O)cc1)C(=O)N[C@@H](CO)C(=O)N[C@H](C(=O)O)[C@@H](C)O | 5.32

Please look at the following molecule next.
Exercise: pKd for `CC[C@H](C)[C@H](NC(=O)[C@H](CC(C)C)NC(=O)[C@@H](NC(=O)[C@H](CC(N)=O)NC(=O)[C@@H](NC(=O)[C@H](Cc1cnc[nH]1)NC(=O)[C@H](CCCNC(=N)N)NC(=O)[C@@H](NC(=O)[C@H](CCCCN)NC(=O)[C@H](CCCNC(=N)N)NC(=O)[C@H](CC(C)C)NC(=O)[C@@H](NC(=O)CN)C(C)C)[C@@H](C)O)C(C)C)[C@@H](C)CC)C(=O)N[C@@H](Cc1ccccc1)C(=O)N[C@@H](CCSC)C(=O)NCC(=O)N[C@@H](Cc1ccc(O)cc1)C(=O)N[C@@H](CO)C(=O)N[C@H](C(=O)O)[C@@H](C)O` ?
Key: 5.39

----------
Each entry below carries its reported Kd.
Biological target: Serine/threonine-protein kinase B-raf (Homo sapiens, UniProt P15056)
Assay: Binding affinity to BRAF (unknown origin) by intrinsic tryptophan fluorescence assay
Details: read-out: Kd
Peptide text beside a SMILES is read from it.
Numbers only; they are read as nM.

CC[C@H](C)[C@H](NC(=O)[C@H](CC(N)=O)NC(=O)[C@@H](NC(=O)[C@H](Cc1cnc[nH]1)NC(=O)[C@H](CCCNC(=N)N)NC(=O)[C@@H](NC(=O)[C@H](CCCCN)NC(=O)[C@H](CCCNC(=N)N)NC(=O)[C@H](CC(C)C)NC(=O)[C@@H](NC(=O)CN)C(C)C)[C@@H](C)O)C(C)C)C(=O)N[C@@H](CC(C)C)C(=O)N[C@@H](CC(C)C)C(=O)N[C@@H](Cc1ccccc1)C(=O)N[C@@H](CCSC)C(=O)NCC(=O)O (H-GVLRKTRHVNILLFMG-OH) | 1880

Please look at the following molecule next.
Exercise: Kd for `CC[C@H](C)[C@H](NC(=O)[C@H](CC(N)=O)NC(=O)[C@@H](NC(=O)[C@H](Cc1cnc[nH]1)NC(=O)[C@H](CCCNC(=N)N)NC(=O)[C@@H](NC(=O)[C@H](CCCCN)NC(=O)[C@H](CC(C)C)NC(=O)[C@H](CC(C)C)NC(=O)[C@@H](NC(=O)CN)C(C)C)[C@@H](C)O)C(C)C)C(=O)N[C@@H](CC(C)C)C(=O)N[C@@H](CC(C)C)C(=O)N[C@@H](Cc1ccccc1)C(=O)N[C@@H](CCSC)C(=O)NCC(=O)N[C@@H](Cc1ccc(O)cc1)C(=O)N[C@@H](CO)C(=O)N[C@H](C(=O)O)[C@@H](C)O` ?
Key: 540
